system_tested: T1, CEACAM8 on transfected HeLa cells (human, UniProt P31997 35-320)
T1 construct: whole, on cells; also called HeLa-CEACAM8; HeLa C8
T1 sequence (looked up): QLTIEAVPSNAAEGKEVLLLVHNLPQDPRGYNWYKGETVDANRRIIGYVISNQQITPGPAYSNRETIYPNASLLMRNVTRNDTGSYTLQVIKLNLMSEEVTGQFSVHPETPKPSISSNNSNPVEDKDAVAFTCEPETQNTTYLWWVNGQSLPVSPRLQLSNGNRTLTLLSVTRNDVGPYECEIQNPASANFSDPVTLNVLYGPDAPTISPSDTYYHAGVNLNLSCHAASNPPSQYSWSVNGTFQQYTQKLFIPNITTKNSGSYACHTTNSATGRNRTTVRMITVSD
assay_info: flow cytometry, transfected HeLa
property: binding result

[[record]]
binder = "VH4/Vκ1 (antibody, IgG4, V domains shown, IgG4 (S241P), kappa) VH: EVQLLESGGGLVQPGGSLRLSCAASGFIFSSHGMSWVRQAPGKGLEWVSTISSGGTYTYYADSVKGRFTISRDNSKNTLYLQMNSLRAEDTAVYYCARHDFDYDAAWFAYWGQGTLVTVSS VL: QIVLTQSPALLSLSPGERATMSCSANSSVSYMYWYRQKPGQAPKPWIYLTSNLASGVPARFSGSGSGTDYTLTISSLEAEDFATYYCQQWSSNPPTFGQGTKLEIK"
endpoint_result = "no binding"

[[record]]
binder = "VH2/Vκ9 (antibody, IgG4, V domains shown, IgG4 (S241P), kappa) VH: EVQLLESGGGLVQPGGSLRLSCAASGFIFSSHGMSWVRQAPGKGLEWVATISSGGTYTYYPDSVKGRFTISRDNSKNTLYLQMNSLRAEDTAMYYCARHDFDYDAAWFAYWGQGTLVTVSS VL: EIVLTQSPATLSLSPGERATLSCRANSSVSYMYWYQQKPGQAPRPLIYLTSNRATGVPARFSGSGSGTDYTLTISSLEPEDFATYYCQQWSSNPPTFGQGTKLEIK"
endpoint_result = "no binding"

[[record]]
binder = "VH2/Vκ4 (antibody, IgG4, V domains shown, IgG4 (S241P), kappa) VH: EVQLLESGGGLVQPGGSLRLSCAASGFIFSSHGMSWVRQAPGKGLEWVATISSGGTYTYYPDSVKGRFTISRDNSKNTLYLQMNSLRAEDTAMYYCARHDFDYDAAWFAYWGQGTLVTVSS VL: EIVLTQSPATLSLSPGERATLSCRANSSVSYMYWYQQKPGQAPRPWIYLTSNRATGIPARFSGSGSGTDYTLTISSLEPEDFATYYCQQWSSNPPTFGQGTKLEIK"
endpoint_result = "no binding"

[[record]]
binder = "VH2/Vκ2 (antibody, IgG4, V domains shown, IgG4 (S241P), kappa) VH: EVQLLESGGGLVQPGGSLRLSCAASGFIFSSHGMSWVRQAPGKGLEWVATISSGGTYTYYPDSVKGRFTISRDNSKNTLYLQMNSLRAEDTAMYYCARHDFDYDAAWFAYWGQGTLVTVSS VL: EIVLTQSPATLSLSPGERATLSCRANSSVSYMYWYQQKPGQAPRPWIYLTSNRATGVPARFSGSGSGTDYTLTISSLEPEDFATYYCQQWSSNPPTFGQGTKLEIK"
endpoint_result = "no binding"

[[record]]
binder = "VH3/Vκ1 (antibody, IgG4, V domains shown, IgG4 (S241P), kappa) VH: EVQLLESGGGLVQPGGSLRLSCAASGFIFSSHGMSWVRQAPGKGLEWVATISSGGTYTYYADSVKGRFTISRDNSKNTLYLQMNSLRAEDTAMYYCARHDFDYDAAWFAYWGQGTLVTVSS VL: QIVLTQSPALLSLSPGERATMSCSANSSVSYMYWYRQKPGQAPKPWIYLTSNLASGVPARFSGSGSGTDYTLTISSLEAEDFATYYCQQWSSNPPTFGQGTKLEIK"
endpoint_result = "no binding"

